Here, each record is paired with measured combination Emax data.
test system: MDA-MB-175-VII (Breast Carcinoma); assay: combination Emax (second highest fraction inhibited in the dose matrix, 72 h); higher = more inhibition; extreme values may be limits of the assay

compound	combination Emax
C=CCn1c(=O)c2cnc(Nc3ccc(N4CCN(C)CC4)cc3)nc2n1-c1cccc(C(C)(C)O)n1 [AZD1775] + C[C@@H]1COCCN1C2=NC(=NC(=C2)C3(CC3)[S@](=N)(=O)C)C4=C5C=CNC5=NC=C4 [AZD6738] (first compound max 1 µM, partner max 10 µM)	0.405
O=C(c1cc(Cc2n[nH]c(=O)c3ccccc23)ccc1F)N1CCN(C(=O)C2CC2)CC1 [Olaparib] + COc1nnc2ccc(N3CCC(c4ccc(OCCN5CCN(C)C(=O)[C@H]5C)cc4)CC3)nn12 [AZD5153] (first compound max 10 µM, 7x7, partner max 1 µM)	0.316
CC1(C)CCC(CN2CCN(c3ccc(C(=O)NS(=O)(=O)c4ccc(NCC5CCOCC5)c([N+](=O)[O-])c4)c(Oc4cnc5[nH]ccc5c4)c3)CC2)=C(c2ccc(Cl)cc2)C1 [Venetoclax] + CCN(CCO)CCCOc1ccc2c(Nc3cc(CC(=O)Nc4cccc(F)c4)[nH]n3)ncnc2c1 [AZD2811] (first compound max 1 µM, 7x7, partner max 1 µM)	0.23
